Protein target, amino acids: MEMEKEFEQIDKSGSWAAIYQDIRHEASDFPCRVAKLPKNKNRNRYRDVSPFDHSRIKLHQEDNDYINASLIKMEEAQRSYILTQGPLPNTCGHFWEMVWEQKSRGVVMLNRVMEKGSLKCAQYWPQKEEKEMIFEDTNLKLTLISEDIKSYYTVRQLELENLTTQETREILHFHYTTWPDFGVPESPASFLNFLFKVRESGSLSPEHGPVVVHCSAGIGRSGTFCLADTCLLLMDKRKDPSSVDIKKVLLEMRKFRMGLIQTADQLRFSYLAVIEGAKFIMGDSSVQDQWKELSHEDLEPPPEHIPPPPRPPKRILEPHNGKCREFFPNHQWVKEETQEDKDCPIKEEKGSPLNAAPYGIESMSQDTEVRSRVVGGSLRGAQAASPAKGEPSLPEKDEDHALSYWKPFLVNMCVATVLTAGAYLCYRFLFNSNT
A compilation of published log10 of IC50 results with the protein given by its sequence.
In plain terms, each number is the log10 of measured IC50 in µM.

compound=CC(C)c1ccccc1-n1nc2c(c(C#N)c1=N)CCSC2 assay_readout="log10 of IC50" numeric_value=0.30
compound=COC1=CC(=O)N/C1=C\c1ccc(CCCC/C=C/CCCCC(=O)O)[nH]1 assay_readout="log10 of IC50" numeric_value=1.20
compound=COc1ccc(S(=O)(=O)Oc2ccc(/C=C3\SC(=O)NC3=O)cc2OC)cc1 assay_readout="log10 of IC50" numeric_value=1.45
compound="COc1ccc(C2CC(c3ccc(C=O)cc3OC)=NO2)cc1 (centres undefined)" assay_readout="log10 of IC50" numeric_value=1.83
compound=O=C1NC(=O)/C(=C/c2cccc(OCCCc3ccccc3)c2)N1 assay_readout="log10 of IC50" numeric_value=1.62

response.value for Cc1ccc(C2CC(=O)c3c(O)cc(O)cc3O2)cc1 (centres undefined) (field: log10 of IC50) = 1.15

response.value for O=C1C=CC(=C(c2ccc(O)cc2)c2c(C#Cc3ccc(O)cc3)cccc2-c2ccc(O)cc2O)C=C1 (field: log10 of IC50) = 1.16

response.value for COc1cc(C=O)ccc1C1=NOC(c2ccncc2)C1 (centres undefined) (field: log10 of IC50) = 2.44

----------
A compilation of published pIC50 results with Tyrosine-protein phosphatase non-receptor type 1 (Homo sapiens).
Target: Tyrosine-protein phosphatase non-receptor type 1 (Homo sapiens)
Sequence (P18031 whole entry): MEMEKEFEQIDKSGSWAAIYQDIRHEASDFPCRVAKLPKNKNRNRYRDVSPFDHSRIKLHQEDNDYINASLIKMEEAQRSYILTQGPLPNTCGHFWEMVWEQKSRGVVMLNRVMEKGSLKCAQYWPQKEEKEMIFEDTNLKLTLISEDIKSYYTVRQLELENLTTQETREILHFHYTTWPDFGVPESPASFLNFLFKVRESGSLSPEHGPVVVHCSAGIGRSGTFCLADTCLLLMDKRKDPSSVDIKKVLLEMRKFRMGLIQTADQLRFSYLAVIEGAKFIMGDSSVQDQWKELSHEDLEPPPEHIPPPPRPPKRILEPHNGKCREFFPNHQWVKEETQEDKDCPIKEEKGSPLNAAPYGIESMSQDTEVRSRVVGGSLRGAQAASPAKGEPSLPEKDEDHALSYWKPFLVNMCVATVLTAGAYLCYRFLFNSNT
Units for pIC50: none; it is -log10 of a concentration expressed in mol/L.

compound=COc1cc(/C=C2\SC(=O)NC2=O)ccc1OS(=O)(=O)c1ccc2ccccc2c1 numeric_value=4.21

response.value for O=C1C=CC(=C(c2ccc(O)cc2)c2c(C#Cc3ccc(O)cc3)cccc2-c2ccc(O)cc2)C=C1 (field: pIC50) = 4.24

response.value for O=C1NC(=O)/C(=C/c2cccc(OCc3ccc(Cl)cc3Cl)c2)N1 (field: pIC50) = 5.39

response.value for COC(=O)C1C(c2ccc(C=O)cc2OC)=NOC1c1ccccc1 (configuration not stated) (field: pIC50) = 3.78

response.value for O=C(c1ccc(-c2ccc(C(=O)N3CCC4(CC3)CC(c3ccccc3F)=NO4)cc2)cc1)N1CCC2(CC1)CC(c1ccccc1F)=NO2 (field: pIC50) = 5.30

response.value for Cc1cc(CC(Cc2ccc3cc(Br)c(C(F)(F)P(=O)(O)O)cc3c2)(C(=O)c2ccccc2)n2nnc3ccccc32)ccc1C1CC(=O)NS1(=O)=O (configuration not stated) (field: pIC50) = 6.03

----------
Target chain: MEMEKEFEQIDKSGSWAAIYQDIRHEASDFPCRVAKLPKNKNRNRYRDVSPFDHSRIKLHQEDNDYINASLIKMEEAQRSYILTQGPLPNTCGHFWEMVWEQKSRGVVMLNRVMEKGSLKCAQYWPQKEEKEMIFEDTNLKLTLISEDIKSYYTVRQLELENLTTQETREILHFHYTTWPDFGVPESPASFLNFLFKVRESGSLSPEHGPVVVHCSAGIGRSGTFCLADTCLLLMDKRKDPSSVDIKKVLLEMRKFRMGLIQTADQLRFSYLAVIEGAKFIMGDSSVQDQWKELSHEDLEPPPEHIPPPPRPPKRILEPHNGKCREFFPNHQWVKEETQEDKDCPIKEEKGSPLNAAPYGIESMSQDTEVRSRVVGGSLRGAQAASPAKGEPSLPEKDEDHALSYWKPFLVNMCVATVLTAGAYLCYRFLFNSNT
pIC50: −log10 of the molar value.
A compilation of published pIC50 results with the protein given by its sequence.

A selection of reference data follows.
given_smiles=COC(=O)c1ccc(-n2cc(CO[C@H]3O[C@H](COCc4ccccc4)[C@@H](OCc4ccccc4)[C@H](OCc4ccccc4)[C@H]3OCc3ccccc3)nn2)cc1 system_name="the protein given by its sequence" assay_readout=pIC50 result="< 4.00"
given_smiles=CO[C@H]1O[C@H](COCc2cn(-c3ccc(C(=O)C(=O)O)cc3)nn2)[C@@H](OCc2ccccc2)[C@H](OCc2ccccc2)[C@H]1OCc1ccccc1 system_name="the protein given by its sequence" assay_readout=pIC50 result=5.49
given_smiles=COC1=CC2=N/C1=C\c1ccc([nH]1)CCCC/C=C/CCCc1cccc2c1 system_name="the protein given by its sequence" assay_readout=pIC50 result="< 4.30"

# next compound below
response.value for O=C1NC(=O)/C(=C/c2cccc(OCc3ccccc3)c2)N1 (field: pIC50) = < 3.77
